These data points were gathered from ChEMBL document CHEMBL1201862.

- Tested on: SR
- experiment.description: NCI tumour cell line growth inhibition, 48 h
Active and inactive are the calls of the source. Cut-off read from the data, not from the text of the source: active = GI50 up to about 1.1 µM and inactive = higher.
Please reply with one of these outcomes: class 1 = active, class 0 = inactive

Task: How did this test come out for "O=C1C=Cc2c1csc2Br" ?
Output: class 0

Task: How did this test come out for "CN1CCC2(CC1)SSC1(CCN(C)CC1)S2" ?
Output: class 0

Task: How did this test come out for "CCn1cnc2c(=S)nc(N)[nH]c21" ?
Output: class 0

Task: How did this test come out for OCC(O)COc1c(Cl)ccc(Cl)c1Cl (stereo not given) ?
Output: class 0

Task: How did this test come out for CCCS(=O)OC1C(C2COC(C)(C)O2)OC2OC(C)(C)OC21 (stereo not given) ?
Output: class 1

Task: How did this test come out for COC(=O)C1=C(C)N2CCOC2(C)C(C(=O)OC)C1c1ccc[nH]1 (stereo not given) ?
Output: class 0

Task: How did this test come out for "O=C(N/N=C/c1ccccc1O)c1ccccc1Nc1ccccc1C(=O)N/N=C/c1ccccc1O" ?
Output: class 1

Task: How did this test come out for "O=c1[nH]nc(-c2ccccc2)n1-n1cnnc1" ?
Output: class 0

Task: How did this test come out for C[C@@H]1CCC2[C@@H](C)[C@@H](O[C@H]3O[C@@H]4O[C@@]5(C)CCC6[C@H](C)CCC([C@H]3C)[C@]64OO5)O[C@@H]3O[C@@]4(C)CCC1[C@@]23OO4 (stereo not given in full) ?
Output: class 1

Task: How did this test come out for "Cc1cc(NS(=O)(=O)c2ccc(Nc3c4ccccc4nc4c(C(=O)Nc5ccc(S(=O)(=O)N=C(N)N)cc5)ccc(Cl)c34)cc2)no1" ?
Output: class 0

---

Would you kindly list GI50 for each of these compounds?
- System: SF-268
- experiment.description: NCI tumour cell line growth inhibition, 48 h
Activity calls are given as the source filed them. No stated cut-off is given here; in the data, active = GI50 up to about 1.1 µM and inactive = higher.

Some solved entries appear below for comparison.
NCCCOCC(=O)O	> 100 µM (inactive)
CC(=O)OCC1OC(Nn2c(=O)[nH]c3ccccc3c2=O)C(OC(C)=O)C(OC(C)=O)C1OC(C)=O (stereo not given)	> 100 µM (inactive)
COc1ccc2c3c([nH]c2c1[N+](=O)[O-])C(C)N(C(=O)/C=C/c1ccccc1)CC3 (stereo not given)	1.7 µM (inactive)
Oc1ccc(/C=N/NC(=S)Nc2cccnc2)nc1	1.39 µM (inactive)

Task: Can you share its GI50? I mean this compound: Nc1ncnc2oc(C3OC(COC(=O)c4ccccc4)C(OC(=O)c4ccccc4)C3OC(=O)c3ccccc3)nc12 (stereo not given)
Output: > 100 µM (inactive)

---

- System: PC-3
- experiment.description: NCI tumour cell line growth inhibition, 48 h
Active and inactive are the calls of the source. Cut-off read from the data, not from the text of the source: active = GI50 up to about 1.1 µM and inactive = higher.
Please reply with one of these outcomes: active, inactive

Observe how each entry below is paired with its result.
CC(C)N1CC2CN(Cc3ccccc3)CC(C1)C2=O	inactive
Nc1ncnc2oc(C3OC(COC(=O)c4ccccc4)C(OC(=O)c4ccccc4)C3OC(=O)c3ccccc3)nc12 (centres undefined)	inactive
c1ccc2c3nnc(c2c1)SCCSCCCSCCS3	inactive
CC1(C)O[C@@H]([C@@H](O)[C@H](O)C2SCCCS2)[C@@H](CO)O1	inactive
CCCS(=O)OC1C(C2COC(C)(C)O2)OC2OC(C)(C)OC21 (centres undefined)	inactive

Task: How did this test come out for CC(=O)O[C@H]1C(=O)[C@@]2(C)C([C@H](OC(=O)c3ccccc3)[C@]3(O)C[C@H](OC(=O)[C@H](O)[C@@H](NC(=O)c4ccc(Cl)cc4)c4ccccc4)C(C)=C1C3(C)C)C1(OC(C)=O)CO[C@@H]1C[C@@H]2O (some centres undefined) ?
Output: active

Task: How did this test come out for "O=[N+]([O-])c1ccccc1S(=O)(=O)c1cccc2c1NCCC2" ?
Output: inactive

Task: How did this test come out for "N=C(N)NS(=O)(=O)c1ccc(N/N=C2/CCOC2=O)cc1" ?
Output: inactive

Task: How did this test come out for "O=C1Oc2ccccc2C(=O)/C1=C\Nc1nc(-c2ccc(O)c(O)c2)cs1" ?
Output: inactive
